Literature-derived pIC50 for Tyrosine-protein kinase JAK2 (Homo sapiens) follows.
pIC50: −log10 of the molar value.

# example entries with known answers
Cn1cc(-c2cc3nccn3c(-c3cnn(C(C4CC4)C4CC4)c3)n2)cn1 = 6.00 to 7.00
Cc1nnc(C(=O)N2CC[C@H](Oc3ccc(-c4ncnc(Nc5cnn(C(C)(C)C)c5)n4)cc3C#N)[C@H](F)C2)[nH]1 = 6.67

Which measured pIC50 belongs to CNC(=O)c1ncc(Nc2nccc(-c3ccc(NC(=O)[C@@H]4CC4(F)F)cc3)n2)cc1C , tested on Tyrosine-protein kinase JAK2 (Homo sapiens)?
8.10

Which measured pIC50 belongs to C[C@@H](O)C(=O)N1C[C@@H](F)[C@@H](Oc2ccc(-c3ncnc(Nc4ccc(N5CCN(C6COC6)CC5)cc4)n3)cc2C#N)C[C@@H]1C , tested on Tyrosine-protein kinase JAK2 (Homo sapiens)?
≤ 6.00

Which measured pIC50 belongs to CCC(CC)n1cc(-c2nc(-c3cnn(C[C@@H]4CCC(=O)N4)c3)cn3nccc23)cn1 , tested on Tyrosine-protein kinase JAK2 (Homo sapiens)?
7.00 to 8.00

Which measured pIC50 belongs to CCOC(=O)N1CCC(NC(=O)c2ccc(Nc3nccc(-c4cnn(C5(CC#N)CN(S(=O)(=O)CC)C5)c4)n3)cc2)CC1 , tested on Tyrosine-protein kinase JAK2 (Homo sapiens)?
> 7.00

Which measured pIC50 belongs to CCOC(=O)NC[C@H]1CC[C@H](n2c([C@@H](C)O)nc3cnc4ccsc4c32)CC1 , tested on Tyrosine-protein kinase JAK2 (Homo sapiens)?
≥ 6.00

Which measured pIC50 belongs to N#CCC1(n2cc(-c3ncnc4[nH]ccc34)cn2)CN(c2ccc(C(=O)NC3(C(F)(F)F)CC3)nc2)C1 , tested on Tyrosine-protein kinase JAK2 (Homo sapiens)?
≥ 8.00

###

Literature-derived IC50 for Tyrosine-protein kinase JAK2 (Homo sapiens, UniProt O60674) follows.

CC(C)(CO)CN1C(=O)c2cc3nc(-c4c(NC[C@@H](O)c5cccc(Cl)c5)cc[nH]c4=O)[nH]c3cc2C1=O = 500 to 5000 nM
CN1CCC(N2C(=O)c3cc4nc(-c5c(NC[C@@H](O)COc6ccc7c(c6)OCO7)ccnc5O)[nH]c4cc3C2=O)CC1 = 500 to 5000 nM
CCC(CC)n1cc(-c2nc(-c3cnn(C[C@@](C)(O)CO)c3)cn3nccc23)cn1 (single isomer, unassigned) = 10 to 100 nM
CN(c1ncnc2[nH]ccc12)C1CC2(C1)CN(C(=O)c1ccc(C3CC3)cc1)C2 = 100 to 1000 nM
C#Cc1ccc(C(=O)N2CC3(CC(N(C)c4ncnc5[nH]ccc45)C3)C2)cc1 = 100 to 1000 nM

Which measured IC50 belongs to Cc1cnc2nc1Nc1ccc(F)c(c1)CCNC(=O)c1ccc(cc1S(C)(=O)=O)-c1cnc(F)c(c1)N2 , tested on Tyrosine-protein kinase JAK2 (Homo sapiens, UniProt O60674)?
101 to 1000 nM

Which measured IC50 belongs to CCOC(=O)Cn1cc(Nc2ncc3ccn(CCC4CCCCC4)c3n2)cn1 , tested on Tyrosine-protein kinase JAK2 (Homo sapiens, UniProt O60674)?
100 to 1000 nM

Which measured IC50 belongs to C#Cc1ccc(C(=O)N2CC3(CC(N(C)c4ncnc5[nH]ccc45)C3)C2)cc1Cl , tested on Tyrosine-protein kinase JAK2 (Homo sapiens, UniProt O60674)?
100 to 1000 nM

###

pIC50: −log10 of the molar value.
Literature-derived pIC50 for Tyrosine-protein kinase JAK2 (Homo sapiens, UniProt O60674) follows.

Cn1cc(-c2cc3nccn3c(-c3cnn(C4(CC#N)CN(CC(F)(F)C(F)(F)F)C4)c3)n2)cn1 = 7.00 to 8.00
C[C@H](O)C(=O)N1CC[C@H](Oc2ccc(-c3ncnc(Nc4ccc(N5CCN6CCOC[C@H]6C5)cc4)n3)cc2C#N)[C@H](F)C1 = 6.44
COc1cnc(Nc2cccc(C(=O)N3CCC(C#N)CC3)c2)nc1-c1cnn(C(CC#N)C2CC2)c1 (racemic) = > 7.00

// pIC50 lookup, key: N#Cc1cccc(S(=O)(=O)N[C@H]2C[C@@H](Nc3c(-c4ncco4)cnc4[nH]ccc34)C2)c1
≥ 8.00

// pIC50 lookup, key: NC(=O)c1cnc(Nc2ccc3c(c2)OC[C@H]2CNCCN32)nc1NC1CC1
> 8.00

// pIC50 lookup, key: Cn1cc(-c2cc3nccn3c(-c3cnn(C(CCO)C4CCCC4)c3)n2)cn1 (stereo not shown)
< 6.00

// pIC50 lookup, key: CN(c1ncnc2[nH]ccc12)N1CCCN(C(=O)CC(F)(F)F)CC1
< 6.00

###

Literature-derived IC50 for Tyrosine-protein kinase JAK2 (Homo sapiens, UniProt O60674) follows.

# example entries with known answers
N#Cc1cc(-c2ncnc(Nc3ccc(N4CCN(C5COC5)CC4)cc3)n2)ccc1O[C@H]1CCN(C(=O)CCO)C[C@H]1F = 408 nM
Cc1ccc(C#N)c(N2CCC(C(=O)N3CCC(N4CC(CC#N)(n5cc(-c6ncnc7[nH]ccc67)cn5)C4)CC3)CC2)n1 = 10 to 50 nM
N#CCC(C1CCC1)n1cc(-c2ccnc(Nc3ccc(N4CCOCC4)cc3)n2)cn1 (racemic) = < 100 nM
CC1(C)CCNC(=O)c2ccc(c(N)c2)-c2ccnc(n2)Nc2ccc(OC3CCCOC3)c(c2)COC1 (centres unmarked) = 1000 to 10000 nM
Cc1nnc(-c2cnc3[nH]ccc3c2N[C@H]2C[C@@H](NS(=O)(=O)c3cc(C#N)ccn3)C2)o1 = 100 to 1000 nM
CC[C@H](Cn1ccc2cnc(Nc3cnn(CC(N)=O)c3)nc21)C(C)C = < 100 nM

// IC50 lookup, key: N#Cc1ccccc1S(=O)(=O)n1ccc2cnc(Nc3ccc(N4CCNCC4)cc3)nc21
< 20 nM

// IC50 lookup, key: CCS(=O)(=O)Nc1cccc(Nc2nccc(-c3cnn(C(CC#N)C4CCCC4)c3)n2)c1 (racemic)
< 100 nM

// IC50 lookup, key: N#CCC1(n2cc(-c3ncnc4[nH]ccc34)cn2)CN(C2CCN(C(=O)C3(c4ccccc4)CC3)CC2)C1
10 to 50 nM

// IC50 lookup, key: Clc1cnc(Nc2ccc(OCCN3CCCC3)cc2)nc1NCc1ccco1
8.85 nM

// IC50 lookup, key: N#CCC(C1CCCC1)n1cc(-c2ccnc(Nc3ccc(C(=O)N[C@H]4CC[C@@H](O)CC4)cc3)n2)cn1 (mixture of isomers)
< 100 nM

// IC50 lookup, key: C[C@H](O)C(=O)N1CC[C@H](Oc2ccc(-c3ncnc(Nc4ccc(N5CCN(C6COC6)CC5)cc4)n3)cc2C#N)C[C@H]1C
593 nM

// IC50 lookup, key: N#CCC1(n2cc(-c3ccnc4[nH]ccc34)cn2)CN(C2CCN(C(=O)c3cc(C(F)(F)F)ncc3Cl)CC2)C1
50 to 100 nM

// IC50 lookup, key: CCC(CC)n1cc(-c2nc(-c3cnn(C[C@H](CN)OC)c3)cn3nccc23)cn1 (single isomer, unassigned)
10 to 100 nM

###

Literature-derived pIC50 for Tyrosine-protein kinase JAK2 (Homo sapiens, UniProt O60674) follows.
pIC50: −log10 of the molar value.

# example entries with known answers
C[C@H]1C[C@@H](Nc2c(-c3ccn(C(F)F)n3)cnc3[nH]ccc23)CN(C(=O)CC#N)C1 = ≥ 8.00
N#CCC1(n2cc(-c3ncnc4[nH]ccc34)cn2)CN(C2CCN(C(=O)OCC3CCCCC3)CC2)C1 = 7.30 to 8.00
C[C@@H](O)C(=O)N1CCC(Oc2ccc(-c3ncnc(Nc4ccc(N5CCN(C6COC6)CC5)cc4)n3)cc2C#N)C(F)(F)C1 (some centres unmarked) = 6.73
Cn1cc(-c2cc3nccn3c(-c3cnn([C@H](CC=C(F)F)C4CC4)c3)n2)cn1 = 7.00 to 8.00
Cc1nc2cnc3ccsc3c2n1[C@H]1CC[C@H](CC#N)CC1 = ≥ 7.00
Cc1noc(C(=O)N2CC[C@H](Oc3ccc(-c4ncnc(Nc5ccc(N6CCN(C7COC7)CC6)cc5)n4)cc3C#N)[C@H](F)C2)n1 = 6.22
N#CCC1(n2cc(-c3ncnc4[nH]ccc34)cn2)CN(C2CCN(C(=O)c3cc(F)ccc3F)CC2)C1 = 7.30 to 8.00
CCS(=O)(=O)N1CC(CC#N)(n2cc(-c3nc(Nc4cnn(C5CCOCC5)c4)nc4ccsc34)cn2)C1 = > 7.30

Which measured pIC50 belongs to N#CCNC(=O)c1ccc(-c2ccnc(Nc3ccc(OC4CCNCC4)cc3)n2)cc1 , tested on Tyrosine-protein kinase JAK2 (Homo sapiens, UniProt O60674)?
> 7.00

Which measured pIC50 belongs to N#Cc1cc(-c2ncnc(Nc3ccc(N4CCOCC4)cc3)n2)ccc1N1CCCC1 , tested on Tyrosine-protein kinase JAK2 (Homo sapiens, UniProt O60674)?
6.58

Which measured pIC50 belongs to Cc1ccc(Cl)cc1NC(=O)N1CCC(N2CC(CC#N)(n3cc(-c4ncnc5[nH]ccc45)cn3)C2)CC1 , tested on Tyrosine-protein kinase JAK2 (Homo sapiens, UniProt O60674)?
≥ 8.00

Which measured pIC50 belongs to Cn1cc(-c2cc3ncc(Cl)n3c(-c3cnn(C4(CC#N)CN(CC(F)(F)F)C4)c3)n2)cn1 , tested on Tyrosine-protein kinase JAK2 (Homo sapiens, UniProt O60674)?
7.00 to 8.00

Which measured pIC50 belongs to N#CCC1(n2cc(-c3ccnc(Nc4ccc(C(=O)NCCO)cc4)n3)cn2)CCN(S(=O)(=O)C2CC2)CC1 , tested on Tyrosine-protein kinase JAK2 (Homo sapiens, UniProt O60674)?
> 7.00

Which measured pIC50 belongs to CC1CN(C(=O)CO)CCC1Oc1ccc(-c2ncnc(Nc3ccc(N4CCN(C5COC5)CC4)cc3)n2)cc1C#N (centres unmarked) , tested on Tyrosine-protein kinase JAK2 (Homo sapiens, UniProt O60674)?
6.59

Which measured pIC50 belongs to Cc1nccc(-c2cccc(Nc3nccc(-c4cnn(C5(CC#N)CN(S(=O)(=O)C6CC6)C5)c4)n3)c2)n1 , tested on Tyrosine-protein kinase JAK2 (Homo sapiens, UniProt O60674)?
> 7.00
